target: T1, recombinant CD47 (recCD47), SinoBiological 12283-H27H-B, biotinylated (human, UniProt Q08722 19-139, biotinylated (AVI-tag)); test: SPR Biacore S200, single-cycle, recCD47 on SA chip 100 RU, antibody as analyte, 25 C, 1:1 model;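 further: antibodies were injected over the captured CD47 at a series of concentrations, and KD was derived as the dissociation rate constant divided by the association rate constant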
T1 construct: Bought protein, 17 kDa; At 17 kDa it can only be a part of it; also called recombinant biotinylated CD47; not shown: C-terminal His- and AVI-tag
T1 sequence (Q08722 19-139 limits assumed): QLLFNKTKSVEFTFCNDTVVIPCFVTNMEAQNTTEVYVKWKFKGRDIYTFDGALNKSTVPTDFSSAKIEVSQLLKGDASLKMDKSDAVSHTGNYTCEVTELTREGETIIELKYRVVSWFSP
Parameter kon: see the listing below.
Lab book: enter the figure in M⁻¹ s⁻¹, no units written.

binder | output.unit | kon
CO207 humanized IgG4 anti-CD47 antibody (antibody, V domains shown, also called huCO-mAb) VH: QVQLVQSGSELKKPGASVKVSCKASGYTFTNFGMHWVRQAPGQGLKWMGWINTYTGEPTYTDDFKGRFVFSLDTSVSTAYLQISSLKAEDTAVYYCTRGDYRYGDSWGQGTTVTVSS VL: DIVMTQTPLSLSVTPGQPASISCRSSQSLVHSNGKTYLHWYLQKPGQSPQLLIYRVSNRFSGVPDRFSGSGSGTDFTLKISRVEAEDVGVYYCSQSTHVPFTFGQGTKLEIK | M⁻¹ s⁻¹ | 4.8e+06
CO211 humanized IgG4 anti-CD47 antibody (antibody, V domains shown, also called huCO-mAb) VH: QVQLVQSGSELKKPGASVKVSCKASGYTFTNFGMHWVRQAPGQGLKWMGWINTYTGEPTYTDDFKGRFVFSLDTSVSTAYLQISSLKAEDTAVYYCTRGDYRYGDSWGQGTTVTVSS VL: DIVMTQTPLSLSVTPGQPASISCRSSQSLVHSNGKTYLHWYLQKPGQSPKLLIYRVSNRFSGVPDRFSGSGSGTDFTLKISRVEAEDVGVYYCSQSTHVPFTFGQGTKLEIK | M⁻¹ s⁻¹ | 5.1e+06

// next item, kon requested
Entry CO210 humanized IgG4 anti-CD47 antibody (antibody, V domains shown, also called huCO-mAb) VH: QVQLVQSGSELKKPGASVKVSCKASGYTFTNFGMHWVRQAPGQGLEWMGWINTYTGEPTYTDDFKGRFVFSLDTSVSTAYLQISSLKAEDTAVYYCTRGDYRYGDSWGQGTTVTVSS VL: DIVMTQTPLSLSVTPGQPASISCRSSQSLVHSNGKTYLHWYLQKPGQSPKLLIYRVSNRFSGVPDRFSGSGSGTDFTLKISRVEAEDVGVYYCSQSTHVPFTFGQGTKLEIK has what kon?
4.9e+06
